B1: SMARCE1 (parent)
chain: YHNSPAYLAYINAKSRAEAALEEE

Variants of: B1
Test: protein stability index of a GFP-peptide fusion (GPS, HEK-293T) (PSI 1-6); higher = more stable;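 also: lentivirally expressed fusions sorted by FACS into six bins by GFP to DsRed ratio, PSI derived from sequencing read proportions per bin multiplied by bin number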
Details: c terminus: a fixed tail appended
Values of protein stability index greater than or equal to 2 map to fulfilled; values below map to not fulfilled.

Here are 5 variants together with their reported answers.
{"columns": ["variant_identifier", "class"],
 "data": [
  ["A13R", "fulfilled"],
  ["Y1G", "fulfilled"],
  ["Y7R", "fulfilled"],
  ["A13V", "fulfilled"],
  ["N12V", "fulfilled"]
]}

Ask: Textbook exercise: given the entry E24M , state whether its protein stability index is greater than or equal to 2.
Result: fulfilled

Ask: protein stability index >= 2 for E18I ?
Result: fulfilled

Ask: hey, is protein stability index for this one >= 2? S15W
Result: fulfilled

Ask: Please check the record Y1Q and state if its protein stability index is at or above 2.
Result: fulfilled
